- target.desc: human recombinant M1 receptor (Homo sapiens, UniProt P11229)
- Sequence (P11229 whole entry): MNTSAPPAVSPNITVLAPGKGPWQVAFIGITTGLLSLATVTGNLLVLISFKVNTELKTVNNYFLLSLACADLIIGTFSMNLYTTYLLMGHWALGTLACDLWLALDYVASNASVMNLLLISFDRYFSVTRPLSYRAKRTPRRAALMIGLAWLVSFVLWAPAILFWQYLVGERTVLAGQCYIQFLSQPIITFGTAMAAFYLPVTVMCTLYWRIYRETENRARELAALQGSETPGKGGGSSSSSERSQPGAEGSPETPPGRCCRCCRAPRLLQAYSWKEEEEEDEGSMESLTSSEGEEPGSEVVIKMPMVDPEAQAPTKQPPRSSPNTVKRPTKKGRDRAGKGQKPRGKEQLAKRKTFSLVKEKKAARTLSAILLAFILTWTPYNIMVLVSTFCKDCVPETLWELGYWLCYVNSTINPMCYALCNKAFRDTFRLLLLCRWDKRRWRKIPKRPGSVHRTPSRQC
- assay.text: biochemical
- Type: binding
quantity: Ki (nM)
I only need the number, in nM, no unit after it.

In: Given OCc1cc([C@@H](O)CNCCC[N+]23CCC(CC2)[C@@H](OC[C@@](O)(c2ccccc2)C2CCCC2)C3)ccc1O , state its recorded Ki.
Out: 0.733

In: Item OCc1cc([C@@H](O)CNCCCC[N+]23CCC(CC2)[C@@H](OC[C@@](O)(c2ccccc2)C2CCCC2)C3)ccc1O has what recorded Ki?
Out: 0.767

###

- assay.text: Lung homogenate stability in vitro (dog)
- Format: in vitro ADME, Beagle dog
- condition.parameters: 8 h, 37° C.
quantity: Residual rate after incubation of dog lung homogenate (%)
Answer in %, number only, no unit symbol.

In: For the compound shown here, CC(NC[C@H](O)c1ccc(O)c(CO)c1)c1ccc(OCCC[N+]23CCC(CC2)[C@@H](OC[C@@](O)(c2ccccc2)C2CCCC2)C3)cc1 (stereo partly shown) [Compound 69] , give the reported Residual rate after incubation of dog lung homogenate (%).
Out: 90

In: Item O=CNc1cc([C@@H](O)CNCCCOc2ccc(OCCC[N+]34CCC(CC3)[C@@H](OC[C@@](O)(c3ccccc3)C3CCCC3)C4)cc2)ccc1O [Compound 113] has what recorded Residual rate after incubation of dog lung homogenate (%)?
Out: 93

In: Item under review: OCc1cc([C@@H](O)CNCCCOc2ccc(OCCC[N+]34CCC(CC3)[C@@H](OC[C@@](O)(c3ccccc3)C3CCCC3)C4)cc2)ccc1O.[Br-] [Compound 122] . Reported Residual rate after incubation of dog lung homogenate (%)?
Out: 92

In: Which Residual rate after incubation of dog lung homogenate (%) is listed for O=c1ccc2c([C@@H](O)CNCCCOc3ccc(OCCC[N+]45CCC(CC4)[C@@H](OC[C@@](O)(c4ccccc4)C4CCCC4)C5)cc3)ccc(O)c2[nH]1.[Br-] [Compound 131] ?
Out: 94

Sourced from patent US11447485B2
